Assay: Growth inhibition of human A549 cells by MTT assay
Format: cell-based
Conditions: A549 cells
The following compounds are shown together with reported GI50 values.

Known GI50 results, listed for orientation:
| compound | GI50 |
| --- | --- |
| Cc1nc(C)c(-c2nn(-c3ccc(F)cc3)cc2-c2cc(=O)c3cc(Cl)c(C)cc3o2)s1 | > 250 µg/mL |
| Cc1nc(C)c(-c2nn(-c3ccc(F)cc3)cc2/C=C/C(=O)c2cc(Cl)cc(Cl)c2O)s1 | > 250 µg/mL |
| Cc1ccc(O)c(C2=NNC(c3cn(-c4ccc(F)cc4)nc3-c3sc(C)nc3C)C2)c1 (centres undefined) | > 250 µg/mL |
| Cc1nc(C)c(-c2nn(-c3ccc(F)cc3)cc2C2CC(c3cc(Cl)ccc3O)=NN2)s1 (centres undefined) | > 250 µg/mL |

**Q:** State the recorded GI50 for this entry: `Cc1nc(C)c(-c2nn(-c3ccc(F)cc3)cc2/C=C/C(=O)c2c(O)cc(C)c(Cl)c2C)s1`
**A:** 33.5 µg/mL

**Q:** Request the reported GI50 associated with `Cc1nc(C)c(-c2nn(-c3ccc(F)cc3)cc2/C=C/C(=O)c2cc(Cl)ccc2O)s1`
**A:** > 250 µg/mL

**Q:** Recorded GI50 of `Cc1ccc(O)c(C(=O)/C=C/c2cn(-c3ccc(F)cc3)nc2-c2sc(C)nc2C)c1` , please.
**A:** 47.8 µg/mL

**Q:** What measured GI50 goes with Cc1nc(C)c(-c2nn(-c3ccc(F)cc3)cc2C2CC(c3cc(Cl)c(C)cc3O)=NN2)s1 (centres undefined) ?
**A:** 146 µg/mL

**Q:** Need GI50 of `Cc1nc(C)c(-c2nn(-c3ccc(F)cc3)cc2/C=C/C(=O)c2cc(Cl)c(C)cc2O)s1` , thanks.
**A:** > 250 µg/mL

* * *

Assay: Growth inhibition of human A549 cells by MTT assay
Type: cell-based
Conditions: A549 cells
measurement_label: GI50

Solved entries (count: 2):
| chemical_smiles | experimental_value |
| --- | --- |
| Cc1ccc2oc(-c3cn(-c4ccc(F)cc4)nc3-c3sc(C)nc3C)cc(=O)c2c1 | > 250 µg/mL |
| CO[C@H]1/C=C/O[C@@]2(C)Oc3c(C)c(O)c4c(O)c(c(/C=N/N5CCN(C)CC5)c(O)c4c3C2=O)NC(=O)/C(C)=C\C=C\[C@H](C)[C@H](O)[C@@H](C)[C@@H](O)[C@@H](C)[C@H](OC(C)=O)[C@@H]1C | > 100 µg/mL |

# context switch: different compound, same GI50
**Q:** GI50 for `Cc1nc(C)c(-c2nn(-c3ccc(F)cc3)cc2/C=C/C(=O)c2cc(Br)ccc2O)s1` ?
**A:** > 250 µg/mL

* * *

Test: Growth inhibition of human HeLa cells by MTT assay
Assay type: cell-based
Conditions: HeLa cells
measurement_label: GI50

| compound | GI50 |
| --- | --- |
| Cc1nc(C)c(-c2nn(-c3ccc(F)cc3)cc2/C=C/C(=O)c2cc(Cl)cc(Cl)c2O)s1 | > 250 µg/mL |

**Q:** Tell me the measured GI50 of Cc1ccc(O)c(C2=NNC(c3cn(-c4ccc(F)cc4)nc3-c3sc(C)nc3C)C2)c1 (configuration not stated) , please.
**A:** > 250 µg/mL

**Q:** Look up GI50: Cc1nc(C)c(-c2nn(-c3ccc(F)cc3)cc2C2CC(c3cc(Cl)ccc3O)=NN2)s1 (configuration not stated)
**A:** > 250 µg/mL

**Q:** Recorded GI50 for `Cc1ccc2oc(-c3cn(-c4ccc(F)cc4)nc3-c3sc(C)nc3C)cc(=O)c2c1` , please?
**A:** > 250 µg/mL

**Q:** Give its GI50 value. Item: `CO[C@H]1/C=C/O[C@@]2(C)Oc3c(C)c(O)c4c(O)c(c(/C=N/N5CCN(C)CC5)c(O)c4c3C2=O)NC(=O)/C(C)=C\C=C\[C@H](C)[C@H](O)[C@@H](C)[C@@H](O)[C@@H](C)[C@H](OC(C)=O)[C@@H]1C`
**A:** > 100 µg/mL

**Q:** I am curious: what GI50 value has been reported for `Cc1nc(C)c(-c2nn(-c3ccc(F)cc3)cc2/C=C/C(=O)c2cc(Cl)ccc2O)s1` ?
**A:** > 250 µg/mL

**Q:** Which GI50 value belongs to Cc1nc(C)c(-c2nn(-c3ccc(F)cc3)cc2C2CC(c3cc(Cl)c(C)cc3O)=NN2)s1 (configuration not stated) ?
**A:** > 250 µg/mL
